Listing: inhibition at 100 µM of selected compounds
target_entity: WT-HγD (Homo sapiens, UniProt P07320)
Construct: made in house; host or cells: E. coli BL21(DE3) pLysS, pET3d vector
Sequence (P07320 whole entry): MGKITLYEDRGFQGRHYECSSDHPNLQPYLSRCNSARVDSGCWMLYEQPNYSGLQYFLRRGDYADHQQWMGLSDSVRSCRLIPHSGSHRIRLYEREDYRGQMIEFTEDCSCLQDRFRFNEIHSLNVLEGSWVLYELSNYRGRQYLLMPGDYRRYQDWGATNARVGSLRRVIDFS
assay_protocol: bis-ANS binding study, WT-HγD
condition_label: 10 μM protein, 100 μM drug; read-out: Percent inhibition of binding of bis-ANS, WT-HγD
Give just the number in %; leave the unit off.

Some entries whose results are on file:
CC(C)=CCC[C@]1(C)C=Cc2c(O)c3c(c(CC=C(C)C)c2O1)O[C@]12C(=C[C@@H]4C[C@H]1C(C)(C)O[C@@]2(C/C=C(/C)C(=O)O)C4=O)C3=O: 44.6
COC(=O)/C=C/C(C)=C\C=C\C(C)=C\C=C\C=C(C)\C=C\C=C(C)\C=C\C(=O)O: 27.9
CC(C)=CCCC1(C)C=Cc2c(O)c3c(c(CC=C(C)C)c2O1)OC12C(=CC4CC1C(C)(C)OC2(C/C=C(/C)C(=O)O)C4O)C3=O (stereo not drawn) [drug D, dihydrogambogic acid]: 34.5
Cc1cc(C(C#N)c2ccc(Cl)cc2)c(Cl)cc1NC(=O)c1cc(I)cc(I)c1O (stereo not drawn): 43.8
Oc1c(Cl)cc(Cl)c(Cl)c1Cc1c(O)c(Cl)cc(Cl)c1Cl: 15.2

Consider the compound shown here: O=C(O)CCCCCCCCCCCC[C@@H]1C=CCC1 What is its recorded inhibition at 100 µM?
4.28

* * *

target_entity: HγS (Homo sapiens)
Sequence (P22914 whole entry): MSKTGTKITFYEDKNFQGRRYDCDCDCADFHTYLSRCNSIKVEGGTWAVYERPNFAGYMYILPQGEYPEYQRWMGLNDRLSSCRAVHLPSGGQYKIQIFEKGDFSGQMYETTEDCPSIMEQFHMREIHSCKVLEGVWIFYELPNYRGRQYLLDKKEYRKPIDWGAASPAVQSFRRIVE
assay_protocol: Thermal aggregation (72 °C, 20 min) turbidity assay, HγS
Type: biochemical
condition_label: 20 min, read-out: % Suppression
Parameter: inhibition at 125 µM. Scope: all listed entries.
The figure you give is taken to be in %; do not add the unit.

CC(C)=CCC[C@]1(C)C=Cc2c(O)c3c(c(CC=C(C)C)c2O1)O[C@]12C(=C[C@@H]4C[C@H]1C(C)(C)O[C@@]2(C/C=C(/C)C(=O)O)C4=O)C3=O [drug G, Gambogic acid]: 46
Cc1cc(C(C#N)c2ccc(Cl)cc2)c(Cl)cc1NC(=O)c1cc(I)cc(I)c1O (stereo not shown) [drug C, Closantel]: 71
CC(C)=CCCC1(C)C=Cc2c(O)c3c(c(CC=C(C)C)c2O1)OC12C(=CC4CC1C(C)(C)OC2(C/C=C(/C)C(=O)O)C4O)C3=O (stereo not shown) [drug D, dihydrogambogic acid]: 61

Here's the next entry for you.
Quick one: inhibition at 125 µM of Oc1c(Cl)cc(Cl)c(Cl)c1Cc1c(O)c(Cl)cc(Cl)c1Cl [drug X, Hexachlorophene] ?
68

* * *

target_entity: OPJ-MγS (Mus musculus, UniProt O35486, F10S)
Construct: made in house; host or cells: E. coli BL21(DE3) pLysS, pET17b vector
Sequence (O35486 whole entry F10S): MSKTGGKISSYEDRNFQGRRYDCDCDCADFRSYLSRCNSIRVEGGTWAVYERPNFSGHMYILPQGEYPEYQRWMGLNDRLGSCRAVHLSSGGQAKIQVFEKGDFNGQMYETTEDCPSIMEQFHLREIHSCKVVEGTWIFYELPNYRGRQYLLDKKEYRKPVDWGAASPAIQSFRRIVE
assay_protocol: End-point heat-mediated turbidity assay, OPJ-MγS
Format: biochemical
condition_label: read-out: Percent Inhibition of heat mediated aggregation, OPJ-MGS
measure_name: inhibition at 500 µM (%)
Response body: numeric value in %, unit text excluded.

Examples with answers:
CC(C)=CCCC1(C)C=Cc2c(O)c3c(c(CC=C(C)C)c2O1)OC12C(=CC4CC1C(C)(C)OC2(C/C=C(/C)C(=O)O)C4O)C3=O (stereo not shown) [drug D, dihydrogambogic acid]: 85.1
CC(C)=CCC[C@]1(C)C=Cc2c(O)c3c(c(CC=C(C)C)c2O1)O[C@]12C(=C[C@@H]4C[C@H]1C(C)(C)O[C@@]2(C/C=C(/C)C(=O)O)C4=O)C3=O [drug G, Gambogic acid]: 91.6
Oc1c(Cl)cc(Cl)c(Cl)c1Cc1c(O)c(Cl)cc(Cl)c1Cl [drug X, Hexachlorophene]: 60.9

The record that follows has no inhibition at 500 µM shown yet.
Entry under review: Cc1cc(C(C#N)c2ccc(Cl)cc2)c(Cl)cc1NC(=O)c1cc(I)cc(I)c1O (stereo not shown) [drug C, Closantel] . Reported inhibition at 500 µM?
82
